Cited source for all entries: the RNAGym collection of RNA variant scans (doi:10.7554/elife.80360)

B1: Twister Ribozyme (parent)
chain: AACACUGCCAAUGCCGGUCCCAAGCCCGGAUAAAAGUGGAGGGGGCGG

- Variants of: B1
- Protocol details: self-cleavage, relative activity (ratio to wild type); higher = more cleavage; co-transcriptional
# binarize self-cleavage: threshold 0.2 inclusive, high side criterion met, low side criterion not met

> print(dat)
                             sequence.string              class
 1  AACACUGCCAAUGCCGGUCCCAAUCCCGGAUAUAAGUGGAGGGGGCGG [G24U A33U]  criterion not met
 2  CACACUGCGAAUGCCGGUCCCAAGCCCGGAUAAAAGUGGAGGGGGCGG [A1C C9G]      criterion met
 3  AACACUGCCCAUGCCGGUCCCAAGACCGGAUAAAAGUGGAGGGGGCGG [A10C C25A]  criterion not met
 4  CACACUGCCAAGGCCGGUCCCAAGCCCGGAUAAAAGUGGAGGGGGCGG [A1C U12G]  criterion not met
 5  AACACUGGCAAUGCCGGUCCCAAGCCCGGAUCAAAGUGGAGGGGGCGG [C8G A32C]      criterion met
 6  AACACUGCCAAGGCCGGUCCCAAGCCCGGAUAAAAGUGGAGGGAGCGG [U12G G44A]      criterion met
 7  CACACUGCCAAUGCCGGUCCCAAGCCCGCAUAAAAGUGGAGGGGGCGG [A1C G29C]      criterion met
 8  AACACGGCCAAUGCCGGUCCCAAGCCCGGAUAAAAGUGGAGGGGUCGG [U6G G45U]  criterion not met
 9  ACCACUGCCAAUGCCGGUCCCAAGCCCGGAUAAAAGUAGAGGGGGCGG [A2C G38A]  criterion not met
10  AACACUACCUAUGCCGGUCCCAAGCCCGGAUAAAAGUGGAGGGGGCGG [G7A A10U]      criterion met
11  AACACUGCCAAUGCCGGUCCCAAGCCCGGAUACAAAUGGAGGGGGCGG [A33C G36A]  criterion not met
12  AACACUGCCAAUGCCGGUACCAAGCCCGGAUAAAAGUGGAGGGGGCGC [C19A G48C]  criterion not met
13  AACACUGCCAAUGCCGGUCCCAUGCCCGGAUCAAAGUGGAGGGGGCGG [A23U A32C]      criterion met
14  AACACUGCAAAUGCCGGUCCCAAGCCCGGAUAAAAGUGGAGGGGGCGA [C9A G48A]      criterion met
15  AACACUGCCAAUGCCGGGCCCAAGCCCGGAUAAAAGUGAAGGGGGCGG [U18G G39A]  criterion not met
16  AACACUGCCAAUGCCGGUCCCAAGCCCGGAUAAAAGUGGGGGGGGGGG [A40G C46G]  criterion not met
17  AACACUGCCAAUGCCGGUCCCAAGCCCGGCUAAAAGUGGAGGAGGCGG [A30C G43A]  criterion not met
18  AACACUGCCAAUGCUGGUCCCAAGCCCGGAUAAAAAUGGAGGGGGCGG [C15U G36A]      criterion met
19  AACACUGCCAAUGCCGGUCCCAAGCCCGGAUAAAGGUGGUGGGGGCGG [A35G A40U]  criterion not met
20  AACACUGCCAAUGCCGGUCCCAAACACGGAUAAAAGUGGAGGGGGCGG [G24A C26A]  criterion not met
21  AACACUGCCAAUGCCGGUCCCAAGCCCGGAUAACAGGGGAGGGGGCGG [A34C U37G]      criterion met
22  AACACUGCCAAUGCCGGUCCCAAGCCCGAAUAAUAGUGGAGGGGGCGG [G29A A34U]      criterion met
